Biological target: TYK2 JH2 domain (Homo sapiens (Human), UniProt P29597)
Sequence (P29597 589-875): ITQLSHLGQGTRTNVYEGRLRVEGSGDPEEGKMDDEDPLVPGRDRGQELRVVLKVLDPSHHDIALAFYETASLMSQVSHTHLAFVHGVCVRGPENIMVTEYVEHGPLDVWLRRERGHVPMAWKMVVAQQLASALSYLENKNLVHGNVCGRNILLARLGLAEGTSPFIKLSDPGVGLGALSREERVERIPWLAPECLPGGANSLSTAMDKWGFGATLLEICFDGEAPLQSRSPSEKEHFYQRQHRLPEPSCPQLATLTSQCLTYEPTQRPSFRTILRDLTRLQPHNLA
Assay: TYK2 JH2 NanoBRET assay
Format: binding
Conditions: Table 20, read-out: TYK2 IC50
Value type: IC50

The examples below pair each entry with its known result.
CCC(=O)c1cnc(Nc2cnc(C(NC)C(F)(F)F)cn2)cc1Nc1cccc(-c2ncn(C)n2)c1OC (centres unmarked) [Compound 9UUU] | 5 to 50 nM
CCC(=O)c1cnc(Nc2cc(CN)ncn2)cc1Nc1cccc(-c2ncn(C)n2)c1OC [Compound 9LLLL] | < 5 nM
CCC(=O)c1cnc(Nc2ccc(O[C@@H]3CCOC3)cn2)cc1Nc1cccc(-c2ncn(C)n2)c1OC [Compound 18BB] | < 5 nM
CCC(=O)c1cnc(Nc2ccc(CN(C)CC#N)cn2)cc1Nc1cccc(-c2ncn(C)n2)c1OC [Compound 9BB] | 5 to 50 nM
CCC(=O)c1cnc(Nc2ccc(OC(C)(C)C(=O)O)c(C)n2)cc1Nc1cccc(-c2ncn(C)n2)c1OC [Compound 18L] | ≥ 500 nM

Notebook: CCC(=O)c1cnc(Nc2ccc(CN3CCCCC3)cn2)cc1Nc1cccc(-c2ncn(C)n2)c1OC [Compound 9RR] , IC50 read as < 5 nM

Notebook: CCC(=O)c1cnc(Nc2cnc(OCCCN3CCCC3)cn2)cc1Nc1cccc(-c2ncn(C)n2)c1OC [Compound 18WW] , IC50 read as < 5 nM

Notebook: CCC(=O)c1cnc(Nc2cnc(OCCN3CC(F)(F)C3)cn2)cc1Nc1cccc(-c2ncn(C)n2)c1OC [Compound 18QQ] , IC50 read as 5 to 50 nM

Notebook: CCC(=O)c1cnc(Nc2ccc(S(C)(=O)=O)cn2)cc1Nc1cccc(COC)c1OC [Compound 13R] , IC50 read as 5 to 50 nM

Notebook: CCC(=O)c1cnc(Nc2ccc(CNC)nn2)cc1Nc1cccc(-c2ncn(C)n2)c1OC [Compound 9GGG] , IC50 read as 5 to 50 nM

----------
pIC50: −log10 of the molar value.
Reported pIC50, human JAK2 (Homo sapiens (Human), UniProt O60674).

The examples below pair each entry with its known result.
CCC(=O)c1cnc(Nc2cnc(O[C@@H]3CCN(CC(F)F)C3)cn2)cc1Nc1cccc(-c2ncn(C)n2)c1OC | ≤ 6.30
CCC(=O)c1cnc(Nc2nc(CN3CCCC3)ns2)cc1Nc1cccc(-c2ncn(C)n2)c1OC [Compound 21H] | ≤ 6.30
CCC(=O)c1cnc(Nc2cnc(O[C@H]3CN(C)C[C@@H]3F)cn2)cc1Nc1cccc(-c2ncn(C)n2)c1OC | ≤ 6.30

Shift focus to the following entry.
Fill in: human JAK2 (Homo sapiens (Human), UniProt O60674) pIC50 for CCC(=O)c1cnc(Nc2cnc(C(NC)C(F)(F)F)cn2)cc1Nc1cccc(-c2ncn(C)n2)c1OC (stereo not shown) = ≤ 6.30

----------
Molecular target: TYK2 JH2 domain (Homo sapiens (Human))
Assay: TYK2 JH2 NanoBRET assay
Assay type: binding
Conditions: Table 20, read-out: TYK2 IC50
pIC50: −log10 of the molar value.
Let's look at some compounds and their measured pIC50.

Notebook: CCC(=O)c1cnc(Nc2cc(C(=O)NC)ncn2)cc1Nc1cccc(-c2ncn(C)n2)c1OC [Compound 8N] , pIC50 read as > 8.30

----------
Let's look at some molecules and their measured IC50.
Molecular target: human JAK1 (Homo sapiens (Human), UniProt P23458)
Sequence (P23458 whole entry): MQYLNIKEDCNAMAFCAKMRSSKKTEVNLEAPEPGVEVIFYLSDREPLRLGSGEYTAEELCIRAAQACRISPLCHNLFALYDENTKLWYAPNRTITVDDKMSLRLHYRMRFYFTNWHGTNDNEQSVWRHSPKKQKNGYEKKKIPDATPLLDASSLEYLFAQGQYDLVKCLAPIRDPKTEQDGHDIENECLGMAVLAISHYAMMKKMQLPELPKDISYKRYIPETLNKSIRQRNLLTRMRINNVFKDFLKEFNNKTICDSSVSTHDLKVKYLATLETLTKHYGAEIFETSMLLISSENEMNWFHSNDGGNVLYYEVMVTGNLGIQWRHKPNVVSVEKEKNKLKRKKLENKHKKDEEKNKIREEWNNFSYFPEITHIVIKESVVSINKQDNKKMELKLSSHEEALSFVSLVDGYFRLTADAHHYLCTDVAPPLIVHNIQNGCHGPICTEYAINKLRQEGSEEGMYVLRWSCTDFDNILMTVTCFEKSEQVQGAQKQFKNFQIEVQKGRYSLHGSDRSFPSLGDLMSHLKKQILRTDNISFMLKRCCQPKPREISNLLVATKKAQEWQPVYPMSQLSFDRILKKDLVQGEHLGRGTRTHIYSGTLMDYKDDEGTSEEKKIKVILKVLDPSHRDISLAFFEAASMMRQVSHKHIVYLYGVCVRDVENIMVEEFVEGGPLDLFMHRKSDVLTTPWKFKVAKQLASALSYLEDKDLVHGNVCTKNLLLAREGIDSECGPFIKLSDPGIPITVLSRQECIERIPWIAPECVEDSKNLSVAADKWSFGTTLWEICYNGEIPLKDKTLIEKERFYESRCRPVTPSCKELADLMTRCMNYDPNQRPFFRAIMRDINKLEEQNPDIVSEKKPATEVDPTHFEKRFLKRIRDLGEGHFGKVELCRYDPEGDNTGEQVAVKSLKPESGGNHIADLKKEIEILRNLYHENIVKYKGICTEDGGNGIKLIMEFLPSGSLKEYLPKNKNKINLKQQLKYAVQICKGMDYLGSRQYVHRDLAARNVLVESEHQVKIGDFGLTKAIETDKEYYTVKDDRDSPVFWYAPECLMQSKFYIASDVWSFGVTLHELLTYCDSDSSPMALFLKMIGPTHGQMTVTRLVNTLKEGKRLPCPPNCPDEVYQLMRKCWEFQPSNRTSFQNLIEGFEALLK
Test: JAK1 TR-FRET kinase assay
Type: biochemical
Conditions: TR-FRET, JAK1 2.5 nM

The examples below pair each entry with its known result.
CCC(=O)c1cnc(Nc2ccc(OC3COC3)cn2)cc1Nc1cccc(-c2ncn(C)n2)c1OC [Compound 18Z] | ≥ 500 nM
CCC(=O)c1cnc(Nc2ccc([C@H](C)N3CC(O)C3)cn2)cc1Nc1cccc(-c2ncn(C)n2)c1OC [Compound 9GG] | ≥ 500 nM
CCC(=O)c1cnc(Nc2ccc(C(C)N(C)C)cn2)cc1Nc1cccc(-c2ncn(C)n2)c1OC (stereo not shown) [Compound 9I] | ≥ 500 nM
CCC(=O)c1cnc(Nc2ccc(S(=O)(=O)CC)cn2)cc1Nc1cccc(-c2ncn(C)n2)c1OC [Compound 13G] | ≥ 500 nM
CCC(=O)c1cnc(Nc2ccc(CN(C)C)c(C(F)(F)F)n2)cc1Nc1cccc(-c2ncn(C)n2)c1OC [Compound 9RRRR] | ≥ 500 nM

Notebook: CCC(=O)c1cnc(Nc2ccc(CCN(C)C)cn2)cc1Nc1cccc(-c2ncn(C)n2)c1OC [Compound 11A] , IC50 read as ≥ 500 nM

Notebook: CCC(=O)c1cnc(Nc2ccc(CCN(C)C)nn2)cc1Nc1cccc(-c2ncn(C)n2)c1OC [Compound 11D] , IC50 read as ≥ 500 nM
